B1: TPR t1 (parent)
chain: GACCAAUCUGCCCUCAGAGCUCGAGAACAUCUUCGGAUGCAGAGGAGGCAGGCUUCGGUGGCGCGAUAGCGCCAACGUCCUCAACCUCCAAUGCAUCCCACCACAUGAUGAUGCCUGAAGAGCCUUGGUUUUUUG

Variants of: B1
Assay: polymerase ribozyme fitness, log enrichment relative to wild type (log ratio); higher = more active; in vitro selection for triplet polymerase activity
The entries below come with measured polymerase ribozyme fitness (log ratio) values attached.
No unit in the answer, only the number.

A selection of reference data follows.
inputSequence	measuredValue
GACCAAUCUGCCCUCAGAGCUCGAGAACAUCUUAGCAUGCAGAGGGGGCAGGCUUCGGUGGCGCGAUAGCGCCAACGUCCUCAACCUCCAAUUCAUCCCACCACAUGAUGAUGCCUGAGGAGCCUUGGUUUUUUG [C34A G36C A46G G93U A119G]	-3.14
GACCAAUCUGCCCUCAGAGCUCGAGACCAUCUUCGGAUGCAGAGGAGGCAGGCUUGGGUGGCGCGAUAGCGCCAACGCCUACAACCUCCAAUGCAUCCCACCACAUGAUGAUGCCUGAAGAGCCUUGGUUUUUUG [A27C C56G U78C C80U U81A]	-3.58
GACCAAUCUGCCCUCAGAGCUCGAGAACAUCUUCGGAUGCCGAGGAGGCAGGCUUCGGUGGCCCGAUAGCGCCAACGUCCUCAACCUCCAAUGCAUCCCACCACGUGAUGAUGCCUGAAGAGCCUUGGUUUUUUG [A41C G63C A105G]	-5.05
GACCAAUCUGCCCUCAGAGCUCGAGAACAUCUUCGGAUGCAGAGGUGGCAGGCUUCGGUGGCGUGAUAGCGCCAACGUCCUCAACCUCCUAUGCAACCCACCACAAGAUGAUGCCUGAAGAGCCUUGGUUAUUUG [A46U C64U A90U U96A U106A U131A]	-3.76
GACCAGACUGCCCUCAGAGCUCGAGAACAUCUUCGGAUGCAGAGGAGGCAGGCUUCGGUGGCGCGAUAGCGCCAACGUCCUCAACCUCCAAUGCAUCCCACCACAUGAUGAUGCCUGAAGAGCCUUGGUUUUUUG [A6G U7A]	0.167

Suppose we examine the variant GACCAAUCUGCGCUCAGAGCUCGAGAACAUCUUCGGAUGCAGAGGAGGCAGGCUUCGGUGGCGCGAUAGAGCCAACGUCCUUAACCUCCAAUGCAUCCCACCACUAGAGGAUGCCUGAAGAGCCUUGGUUUUUUG [C12G C70A C82U A105U U106A U109G] ; what polymerase ribozyme fitness (log ratio) value has been reported?
-4.43

Suppose we examine the variant GACCAAUCUGCCCUCAGAGCUCGAGAUCAUCUUCGGAUGCAGAGGAGGCAGGCUUCGGUGGCGCGCUAGCGCCAACGUCCUCUACCUCCAAUGCAUCCCACCACAUGAUGAUGCCUGAAGAGCCUUGGUUUUUUG [A27U A66C A83U] ; what polymerase ribozyme fitness (log ratio) value has been reported?
-4.44

Suppose we examine the variant GACCAAUCUGCCCUCAGAGAUCGAGAACAUCUUCGGAUACACAGGAGGCAGGCUUCGGUGUCGCGAUAGCGCCAACGUCCUCAACCUCCAAUGCAUCCCACCACAUGAUGAUGCCUGAAGAGCCUUGGCUUUUUG [C20A G39A G42C G61U U129C] ; what polymerase ribozyme fitness (log ratio) value has been reported?
-5.17

Suppose we examine the variant GACCAAUCUGCCUUCAGAGCUCGAGAACAUCUUCGGAUGCAGAGGAGGCAGGCUACGGUGGCGCGAUAGCGCCAACGUCCUCAACCUUCAAUGCAUCCCACCACAUGAUGAUGCCUGAAGAGCCUUGGUUUUUUG [C13U U55A C88U] ; what polymerase ribozyme fitness (log ratio) value has been reported?
-0.31

Suppose we examine the variant GACCAAUCUGACCUCAGAGCUCGAGAACAUCUUCGGAUGCAGAGGAGGCAGGCUUCGGUGGCGCGUUAGCACCAACGUCCUCAACCUCCAAUGCAUCCCACCACAUGAUGAUGCCUGAAGCGCCUUGGUAUUUUG [C11A A66U G71A A121C U130A] ; what polymerase ribozyme fitness (log ratio) value has been reported?
-1.61

Suppose we examine the variant GACCAAUCUGCCCUCAGAGCUCGAGAACAUCUUCGGAUGCAGAGGAGGCAGGCUUCGGUGGUGCGAUAGCGCCAACGUCCUCAACCUCCAAUCCAUCCCACCACAUGAUGAUGCCUGAAGAGCCUUGGUUUUUUG [C62U G93C] ; what polymerase ribozyme fitness (log ratio) value has been reported?
-1.8
